Target: T1, soluble human FcRn (shFcRn) (human, UniProt P55899 24-297; P61769 21-119)
T1 construct: Biotinylated for the ELISA, amine-coupled to a CM5 chip for SPR; also called biotinylated shFcRn
T1 sequence (P55899 24-297 limits assumed, chain 1 of 2): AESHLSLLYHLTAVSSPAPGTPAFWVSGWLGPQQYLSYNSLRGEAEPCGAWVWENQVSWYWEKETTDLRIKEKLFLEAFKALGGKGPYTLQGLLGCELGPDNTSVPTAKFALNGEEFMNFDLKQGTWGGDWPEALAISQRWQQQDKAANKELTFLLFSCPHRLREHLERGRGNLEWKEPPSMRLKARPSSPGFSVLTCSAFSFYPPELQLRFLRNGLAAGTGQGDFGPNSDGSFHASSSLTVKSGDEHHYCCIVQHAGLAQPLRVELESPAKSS
T1 sequence (P61769 21-119 limits assumed, chain 2 of 2): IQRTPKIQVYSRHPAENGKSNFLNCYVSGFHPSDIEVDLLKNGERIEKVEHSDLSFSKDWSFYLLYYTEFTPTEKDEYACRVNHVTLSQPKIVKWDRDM
Assay: IgG competition ELISA
Bridge positions count the residues as written; N and C are the ends. Square brackets hold non-standard residues; d marks the D form. Ends that are not written are not given here. Pen = CC(C)(S)[C@H](N)C(=O)O; Sar = CNCC(=O)O

{"binder": "RF[Pen]TGHFG[Sar]YPCNGP-NH2 (disulfide 3-12; N-terminus assumed; SMILES C[C@@H](O)[C@@H]1NC(=O)[C@@H](NC(=O)[C@H](Cc2ccccc2)NC(=O)[C@@H](N)CCCNC(=N)N)C(C)(C)SSC[C@@H](C(=O)N[C@@H](CC(N)=O)C(=O)NCC(=O)N2CCC[C@H]2C(N)=O)NC(=O)[C@@H]2CCCN2C(=O)[C@H](Cc2ccc(O)cc2)NC(=O)CN(C)C(=O)CNC(=O)[C@H](Cc2ccccc2)NC(=O)[C@H](Cc2c[nH]cn2)NC(=O)CNC1=O, copied as printed (RF-Pen-TGHFG-Sar-YPCNGP); a Leu after Sar may be missing in the print) [Peptide No. 147]", "IC50, nM": 1000}
{"binder": "QRF[Pen]TGHFGGLYPCNGP-NH2 (disulfide 4-14; N-terminus assumed; SMILES CC(C)C[C@@H]1NC(=O)CNC(=O)CNC(=O)[C@H](Cc2ccccc2)NC(=O)[C@H](Cc2c[nH]cn2)NC(=O)CNC(=O)[C@H]([C@@H](C)O)NC(=O)[C@@H](NC(=O)[C@H](Cc2ccccc2)NC(=O)[C@H](CCCNC(=N)N)NC(=O)[C@@H](N)CCC(N)=O)C(C)(C)SSC[C@@H](C(=O)N[C@@H](CC(N)=O)C(=O)NCC(=O)N2CCC[C@H]2C(N)=O)NC(=O)[C@@H]2CCCN2C(=O)[C@H](Cc2ccc(O)cc2)NC1=O) [Peptide No. 32]", "IC50, nM": 2000}

Where these numbers come from: patent US20110059889A1
